- Organism: Rattus norvegicus
- experimental.protocol: DrugMatrix - Regimen: Daily Repeat
- Format: toxicity, organism-based, Sprague-Dawley
- Parameters: regimen Daily Repeat, gender Male, age 6-8 weeks
- condition.context: in vivo, po, 0 mg/kg, 72 h, tissue Plasma, route oral GAVAGE, dose level Control, time 3 day, vehicle 100 % WATER
URIC ACID values for the molecules below.
measured.quantity: URIC ACID (mg/dL)

> print(dat)
                                   molecule  measured.quantity  reading.unit  numeric.readout
1  COc1cc2ncnc(Nc3ccc(F)c(Cl)c3)c2cc1OCCCN1CCOCC1          URIC ACID         mg/dL           0.0167
2       Nc1ccn([C@@H]2CS[C@H](CO)O2)c(=O)n1          URIC ACID         mg/dL             0.65
3                 Cc1ncc([N+](=O)[O-])n1CCO          URIC ACID         mg/dL             1.82
4  COC(=O)C1=C(C)NC(C)=C(C(=O)OCC(C)C)C1c1ccccc1[N+](=O)[O-] (configuration not stated)          URIC ACID         mg/dL              0.5
5  CC(C)(C)c1ccc(C(=O)CCCN2CCC(OC(c3ccccc3)c3ccccc3)CC2)cc1          URIC ACID         mg/dL             1.35
6                    ClC(Cl)Cl [CHLOROFORM]          URIC ACID         mg/dL             1.82
7  C[C@@H]1C[C@@H]([C@H](O)CC2CC(=O)NC(=O)C2)C(=O)[C@@H](C)C1 [CYCLOHEXIMIDE]          URIC ACID         mg/dL             1.77

###

- Species on record: Rattus norvegicus
- experimental.protocol: DrugMatrix - Regimen: Daily Repeat
- Format: toxicity, organism-based, Sprague-Dawley
- Design: regimen Daily Repeat, gender Male, age 6-8 weeks
- condition.context: in vivo, po, 0 mg/kg, 72 h, tissue Plasma, route oral GAVAGE, dose level Control, time 3 day, vehicle 100 % WATER
// TOTAL PROTEIN lookup, one value per entry
measured.quantity: TOTAL PROTEIN

> print(dat)
                                   compound     result
1  CC(C)C[C@H](NC(=O)[C@@H](O)[C@H](N)Cc1ccccc1)C(=O)O  5.85 G/DL
2                 Cc1ncc([N+](=O)[O-])n1CCO  5.95 G/DL
3  COC(=O)C1=C(C)NC(C)=C(C(=O)OCC(C)C)C1c1ccccc1[N+](=O)[O-] (stereo unspecified)   6.1 G/DL
4  C[C@@H]1C[C@@H]([C@H](O)CC2CC(=O)NC(=O)C2)C(=O)[C@@H](C)C1 [CYCLOHEXIMIDE]  6.08 G/DL
5                    ClC(Cl)Cl [CHLOROFORM]  5.95 G/DL
6       Nc1ccn([C@@H]2CS[C@H](CO)O2)c(=O)n1  6.08 G/DL

###

- Species: Rattus norvegicus
- experimental.protocol: DrugMatrix - Regimen: Daily Repeat
- Format: toxicity, organism-based, Sprague-Dawley
- Design: regimen Daily Repeat, gender Male, age 6-8 weeks
- condition.context: in vivo, po, 0 mg/kg, 72 h, tissue Plasma, route oral GAVAGE, dose level Control, time 3 day, vehicle .5 % CMC

compound	GLUCOSE
CO[C@H]1/C=C/O[C@@]2(C)Oc3c(C)c(O)c4c(c3C2=O)C2=NC3(CCN(CC(C)C)CC3)NC2=C(NC(=O)/C(C)=C\C=C\[C@H](C)[C@H](O)[C@@H](C)[C@@H](O)[C@@H](C)[C@H](OC(C)=O)[C@@H]1C)C4=O	142.67 mg/dL
CC[C@@H](CO)NCCN[C@@H](CC)CO	185.17 mg/dL
Clc1ccc2c(c1)C(N1CCNCC1)=Nc1ccccc1O2	160.67 mg/dL
O=C1CCC(N2C(=O)c3ccccc3C2=O)C(=O)N1 (stereo not drawn) [THALIDOMIDE]	182.67 mg/dL
C[C@](O)(CS(=O)(=O)c1ccc(F)cc1)C(=O)Nc1ccc(C#N)c(C(F)(F)F)c1 [(R)-BICALUTAMIDE]	151.67 mg/dL
Cc1onc(-c2ccccc2)c1-c1ccc(S(N)(=O)=O)cc1	193.67 mg/dL
N=C(N)NC(=O)c1nc(Cl)c(N)nc1N [AMILORIDE]	185.17 mg/dL
O=[N+]([O-])c1ccccc1	171.67 mg/dL

###

- Species: Rattus norvegicus
- experimental.protocol: DrugMatrix - Regimen: Daily Repeat
- Type: toxicity, organism-based, Sprague-Dawley
- Parameters: regimen Daily Repeat, gender Male, age 6-8 weeks
- condition.context: in vivo, po, 0 mg/kg, 72 h, tissue Blood, route oral GAVAGE, dose level Control, time 3 day, vehicle 100 % WATER
measured.quantity: NUCLEATED RED BLOOD CELLS

> print(dat)
                                   compound        result
1  COc1ccc2c(c1)c(CC(=O)O)c(C)n2C(=O)c1ccc(Cl)cc1 [INDOMETHACIN]     0 /100WBC
2  CC(C)NCC(O)COc1cccc2ccccc12 (stereo not drawn) [PROPRANOLOL]  0.17 /100WBC
3                    ClC(Cl)Cl [CHLOROFORM]     0 /100WBC

###

- Species: Rattus norvegicus
- experimental.protocol: DrugMatrix - Regimen: Daily Repeat
- Format: toxicity, organism-based, Sprague-Dawley
- Set-up: regimen Daily Repeat, gender Male, age 6-8 weeks
- condition.context: in vivo, po, 0 mg/kg, 72 h, tissue Blood, route oral GAVAGE, dose level Control, time 3 day, […]
The following compounds are listed with their measured MEAN CORPUSCULAR VOLUME values.
measured.quantity: MEAN CORPUSCULAR VOLUME

> print(dat)
                                   compound    result
1  Cc1cccc(Nc2ccncc2S(=O)(=O)NC(=O)NC(C)C)c1 [TORSEMIDE]   63.3 fL
2  CC(C)(Oc1ccc(C2CCCc3ccccc32)cc1)C(=O)O (centres undefined) [NAFENOPIN]  62.03 fL
3  CCOC(=O)C(C)(C)Oc1ccc(Cl)cc1 [CLOFIBRATE]  62.65 fL
4       CCCCCCCCc1ccc(O)cc1 [4-OCTYLPHENOL]  62.73 fL

###

List of NEUTROPHIL values.
- Organism: Rattus norvegicus
- experimental.protocol: DrugMatrix - Regimen: Daily Repeat
- Assay type: toxicity, organism-based, Sprague-Dawley
- Design: regimen Daily Repeat, gender Male, age 6-8 weeks
- condition.context: in vivo, po, 0 mg/kg, 120 h, tissue Blood, route oral GAVAGE, dose level Control, time 5 day, vehicle .5 % CMC
measured.quantity: NEUTROPHIL (%)

> print(dat)
                                   compound  measured.quantity  numeric.readout
1  O=C1CCC(N2C(=O)c3ccccc3C2=O)C(=O)N1 (centres undefined) [THALIDOMIDE]         NEUTROPHIL            14.05
2  C#C[C@]1(O)CC[C@H]2[C@@H]3CCc4cc(OC)ccc4[C@H]3CC[C@@]21C [MESTRANOL]         NEUTROPHIL             6.67
3  C[C@](O)(CS(=O)(=O)c1ccc(F)cc1)C(=O)Nc1ccc(C#N)c(C(F)(F)F)c1 [(R)-BICALUTAMIDE]         NEUTROPHIL                8
4  CC(=O)CC(c1ccccc1)c1c(O)c2ccccc2oc1=O (centres undefined) [WARFARIN]         NEUTROPHIL             7.67

###

- Species: Rattus norvegicus
- experimental.protocol: DrugMatrix - Regimen: Daily Repeat
- Type: toxicity, organism-based, Sprague-Dawley
- Design: regimen Daily Repeat, gender Male, age 6-8 weeks
- condition.context: in vivo, po, 1500 mg/kg, 120 h, tissue Plasma, route oral GAVAGE, dose level High, time 5 day, vehicle .5 % CMC
measured.quantity: LIPASE (u/L)

> print(dat)
                                   compound  numeric.readout
1     Cc1cc(=O)n(-c2ccccc2)n1C [ANTIPYRINE]               10
2             NC(=O)c1cnccn1 [PYRAZINAMIDE]                9
3  O=C(N[C@H](CO)[C@H](O)c1ccc([N+](=O)[O-])cc1)C(Cl)Cl             8.67
